- METHOD_NOTES: Proposed mechanism(s) of liver damage. [column 'MEC' in source]
- CONDITION_DETAILS: human
QUANTITY_NAME: Hepatotoxicity (mechanism)

Known Hepatotoxicity (mechanism) results, listed for orientation:
MOLECULE: CCC1(c2ccccc2)C(=O)NC(=O)NC1=O [PHENOBARBITAL]
Hepatotoxicity (mechanism): Allergic
//
MOLECULE: O=C(O)COCCN1CCN(C(c2ccccc2)c2ccc(Cl)cc2)CC1 (centres undefined) [CETIRIZINE]
Hepatotoxicity (mechanism): Allergic
//
MOLECULE: O=C1Nc2ccccc2C1(c1ccc(O)cc1)c1ccc(O)cc1 [OXYPHENISATINE]
Hepatotoxicity (mechanism): Allergic
//
MOLECULE: CC(=O)N[C@@H](CS)C(=O)O [ACETYLCYSTEINE]
Hepatotoxicity (mechanism): Dose-dependant
//
MOLECULE: CC1(C)S[C@@H]2[C@H](NC(=O)Cc3ccccc3)C(=O)N2[C@H]1C(=O)O [PENICILLIN G]
Hepatotoxicity (mechanism): Allergic
//
MOLECULE: CNCCNc1ccc2c3c(nn2CCNCCO)-c2c(O)ccc(O)c2C(=O)c13 [TELOXANTRONE]
Hepatotoxicity (mechanism): Dose-dependant
//
MOLECULE: O=c1ccc2ccccc2o1 [COUMARIN]
Hepatotoxicity (mechanism): Dose-dependant
//
MOLECULE: CCc1nn(CCCN2CCN(c3cccc(Cl)c3)CC2)c(=O)n1CCOc1ccccc1 [NEFAZODONE]
Hepatotoxicity (mechanism): Allergic
//
MOLECULE: Cc1ncc([N+](=O)[O-])n1CC(O)CCl (centres undefined) [ORNIDAZOLE]
Hepatotoxicity (mechanism): Allergic
//
MOLECULE: O=C1c2ccccc2C(=O)C1c1ccccc1 [PHENINDIONE]
Hepatotoxicity (mechanism): Allergic

Fill in Hepatotoxicity (mechanism) for each of the 5 molecules listed.
1. C[C@H](CS)C(=O)N1CCC[C@H]1C(=O)O [CAPTOPRIL]
2. Cc1ccc(S(=O)(=O)NC(=O)NN2CC3CCCC3C2)cc1 (centres undefined) [GLICLAZIDE]
3. c1ccc2[nH]c(-c3cscn3)nc2c1 [THIABENDAZOLE]
4. O=C1CC[C@@]2(O)[C@H]3Cc4ccc(O)c5c4[C@@]2(CCN3CC2CC2)[C@H]1O5 [NALTREXONE]
5. CN1CCC(=C2c3ccccc3C=Cc3ccccc32)CC1 [CYPROHEPTADINE]

Result:
Allergic
Allergic
Allergic
Dose-dependant
Allergic
